The following compounds are shown together with reported IC50 values.
biological target: PI3Kδ (Homo sapiens, UniProt O00329); construct: made in house; assay: TR-FRET enzymatic activity assay, PI3Kδ; type: biochemical; settings: Table 2; TR-FRET, 2x Km ATP, 30 minutes at 25° C.
Sequence (O00329 whole entry): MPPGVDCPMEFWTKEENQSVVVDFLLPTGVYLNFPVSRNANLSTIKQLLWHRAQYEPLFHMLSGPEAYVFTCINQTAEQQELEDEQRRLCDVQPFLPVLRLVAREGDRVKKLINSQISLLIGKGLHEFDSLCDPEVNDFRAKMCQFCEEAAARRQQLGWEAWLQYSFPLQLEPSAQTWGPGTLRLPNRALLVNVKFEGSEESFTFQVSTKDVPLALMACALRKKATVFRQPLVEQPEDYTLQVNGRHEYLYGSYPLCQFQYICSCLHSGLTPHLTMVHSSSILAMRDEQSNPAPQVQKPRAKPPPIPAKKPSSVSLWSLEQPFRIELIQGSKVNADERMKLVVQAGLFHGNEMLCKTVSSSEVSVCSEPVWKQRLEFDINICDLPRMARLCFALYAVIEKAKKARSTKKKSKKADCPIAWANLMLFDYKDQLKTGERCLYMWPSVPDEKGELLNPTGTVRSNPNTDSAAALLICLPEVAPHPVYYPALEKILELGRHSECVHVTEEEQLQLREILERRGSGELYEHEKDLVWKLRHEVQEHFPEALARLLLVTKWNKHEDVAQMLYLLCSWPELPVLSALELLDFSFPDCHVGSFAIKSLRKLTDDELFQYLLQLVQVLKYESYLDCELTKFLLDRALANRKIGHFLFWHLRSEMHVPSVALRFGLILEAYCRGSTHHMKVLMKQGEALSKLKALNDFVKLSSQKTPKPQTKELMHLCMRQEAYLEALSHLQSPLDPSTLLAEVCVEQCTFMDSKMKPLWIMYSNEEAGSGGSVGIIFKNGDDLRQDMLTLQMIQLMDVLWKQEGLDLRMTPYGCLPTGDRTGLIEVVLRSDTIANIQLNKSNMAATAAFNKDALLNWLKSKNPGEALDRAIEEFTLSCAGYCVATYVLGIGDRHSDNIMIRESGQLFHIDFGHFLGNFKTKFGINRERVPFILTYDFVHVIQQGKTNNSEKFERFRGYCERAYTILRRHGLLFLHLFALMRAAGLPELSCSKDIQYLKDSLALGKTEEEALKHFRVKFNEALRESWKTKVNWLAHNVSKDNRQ
Sequence (P27986 whole entry partner): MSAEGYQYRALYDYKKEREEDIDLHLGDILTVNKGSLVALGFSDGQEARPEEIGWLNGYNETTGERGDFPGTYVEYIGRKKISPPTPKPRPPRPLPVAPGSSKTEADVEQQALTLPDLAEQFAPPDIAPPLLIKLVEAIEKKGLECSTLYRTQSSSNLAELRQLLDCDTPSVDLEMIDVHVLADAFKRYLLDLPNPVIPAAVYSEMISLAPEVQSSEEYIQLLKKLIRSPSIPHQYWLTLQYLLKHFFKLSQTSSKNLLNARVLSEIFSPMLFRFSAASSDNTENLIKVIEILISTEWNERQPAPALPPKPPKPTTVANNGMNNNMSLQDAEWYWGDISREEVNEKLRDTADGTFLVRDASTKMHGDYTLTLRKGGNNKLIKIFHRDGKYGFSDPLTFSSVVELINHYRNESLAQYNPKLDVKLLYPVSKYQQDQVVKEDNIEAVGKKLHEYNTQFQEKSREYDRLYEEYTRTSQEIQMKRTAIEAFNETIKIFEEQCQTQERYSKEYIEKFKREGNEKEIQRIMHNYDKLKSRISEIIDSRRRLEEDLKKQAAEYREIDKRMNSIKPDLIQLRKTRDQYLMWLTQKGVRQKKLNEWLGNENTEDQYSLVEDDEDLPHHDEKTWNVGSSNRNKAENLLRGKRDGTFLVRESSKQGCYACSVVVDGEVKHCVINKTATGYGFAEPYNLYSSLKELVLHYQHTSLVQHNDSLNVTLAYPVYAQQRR
Your answer should be a number followed by the unit of measure.

Worked examples, 5 compounds total:
C[C@H](Nc1nc(N)nc(N)c1Cl)c1nc2cccc(C(F)F)c2c(=O)n1-c1cc[nH]n1 [Compound 126] :: 3 nM
O=c1c2c(Cl)cccc2nc([C@@H](Nc2ncnc3scnc23)C2CC2)n1-c1cn[nH]c1 [Compound 25] :: 1 nM
CC[C@H](Nc1ncnc2sccc12)c1nc2c(Cl)ccc(Cl)c2c(=O)n1-c1cn[nH]c1 [Compound 56] :: 88 nM
CC[C@H](Nc1nc(N)nc(N)c1C#N)c1nc2cccc(Cl)c2c(=O)n1-c1cn[nH]c1 [Compound 21] :: 2 nM
CC[C@H](Nc1ncnc2scnc12)c1nc2c(Cl)ccc(Cl)c2c(=O)n1-c1cc[nH]n1 [Compound 46] :: 4 nM

Req: # query: IC50 of entry Nc1nc(N)c(Cl)c(N[C@H](c2nc3c(F)cccc3c(=O)n2-c2cc[nH]n2)C2CC2)n1 [Compound 12]
Resp: 51 nM

Req: Endpoint output: IC50 of O=c1c2c(Cl)cccc2nc([C@H](CO)Nc2ncnc3scnc23)n1-c1cc[nH]n1 [Compound 51] . Value?
Resp: 2 nM

Req: Look at this compound and give its reported IC50. N#Cc1c(N)nc(N)nc1N[C@H](c1nc2c(Cl)cccc2c(=O)n1-c1cc[nH]n1)C1CC1 [Compound 30]
Resp: 3 nM

Req: # query: IC50 of entry Nc1nc(N)c(Cl)c(N[C@H](c2nc3c(F)ccc(F)c3c(=O)n2-c2cc[nH]n2)C2CC2)n1 [Compound 11]
Resp: 44 nM

Req: // IC50 lookup, key: Cc1nc(N)nc(N[C@@H](c2ccccc2)c2nc3cccc(Cl)c3c(=O)n2-c2cc[nH]n2)c1C#N [Compound 110]
Resp: 1 nM

Req: // IC50 lookup, key: CC[C@H](Nc1ncnc2sccc12)c1nc2c(Cl)ccc(Cl)c2c(=O)n1-c1cc[nH]n1 [Compound 54]
Resp: 18 nM
